# target of assay: TEAD4.Yap1 interaction (Homo sapiens, UniProt Q15561)
# Sequence (Q15561 217-434): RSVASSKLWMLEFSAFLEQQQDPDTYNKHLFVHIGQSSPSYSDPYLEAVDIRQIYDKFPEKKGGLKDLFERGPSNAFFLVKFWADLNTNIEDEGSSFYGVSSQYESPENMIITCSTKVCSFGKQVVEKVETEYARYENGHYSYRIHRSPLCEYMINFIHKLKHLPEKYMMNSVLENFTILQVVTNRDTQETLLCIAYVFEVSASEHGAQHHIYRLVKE
# test protocol: Fluorescence polarization, GST-TEAD4 with FAM-Yap60-99 peptide
# Format: binding
# Design: TEAD4 (217-434), TEAD4 (217-434) Cys367Ser mutant and Yap1 (Full-length) were expressed as GST-fusion proteins; made in house; host or cells: E. coli BL-21 (DE3), pGEX-6P-1
# condition parameters: corresponding to kinact
metric name: t1/2^∞ (half-life of inactivation) (h)
Answers are plain numbers, in h.

Before answering, review these 3 worked examples.
• COCCOc1cccc(Nc2ccccc2C(=O)CCl)c1 = 67.3
• COc1ccc(C(=O)CCl)c(Nc2cccc(C(F)(F)F)c2)c1 = 20
• O=C(CCl)c1ncccc1Nc1cccc(C(F)(F)F)c1 = 14.3

Let us examine a further case.
Task: Using the record for `O=C(CCl)c1ccccc1Nc1cccc(C(F)(F)F)c1` , report its t1/2^∞ (half-life of inactivation).
Result: 18.2
